Each recorded value in this set is attributed to ChEMBL document CHEMBL1201862.

system: M19-MEL; assay: NCI tumour cell line growth inhibition, 48 h
Calls of active or inactive are those of the source. Cut-off read from the data, not from the text of the source: active = GI50 up to about 1.1 µM and inactive = higher.
For each record, write down the corresponding GI50.

A selection of reference data follows.
molecule: CC1=NN(C(=O)Nc2ccccc2)C(=O)C2CCC(=O)N12 (stereo unspecified)
GI50: > 100 µM (inactive)

molecule: O=C(O/N=C1/CCCC/C1=C\c1ccccc1)c1ccccc1
GI50: > 100 µM (inactive)

molecule: COc1ccc(C(=O)C(CC2C(=O)NC(=O)NC2=O)c2ccc(OC)cc2)cc1 (stereo unspecified)
GI50: > 100 µM (inactive)

molecule: ClCCC[Si]12OCCN(CCO1)CCO2
GI50: > 100 µM (inactive)

Please state, for each entry, its recorded GI50.
1. N#CCC(=O)N/N=C(/C(=O)Nc1ccccc1)C1C(=O)N(c2ccccc2)N=C1N (stereo unspecified)
2. CCN(CC)CCCC(C)Nc1cc(-c2ccccc2)nc2cc(OC)ccc12 (stereo unspecified)
3. COc1cc(C(=O)C/C(CCC(=O)Nc2ccc(Cl)cc2Cl)=N/NC(=O)C(=O)NN)ccc1O

Given back:
["> 100 µM (inactive)", "10.1 µM (inactive)", "> 100 µM (inactive)"]

Please state, for each entry, its recorded GI50.
1. Cn1cnc([N+](=O)[O-])c1Sc1nnnn1C
2. O=c1[nH]c(=O)n(C2CC(O)C(CO)O2)cc1OS(=O)(=O)C(F)(F)F (stereo unspecified)
3. CC(=O)O[C@@H]1C2C(=O)OC(=O)C2C2CCC[C@]23O[C@H]13 (stereo partly specified)
4. Cc1nn(-c2ccccc2)c2nc(N3CCOCC3)nnc12

Given back:
1: 15.7 µM (inactive); 2: > 100 µM (inactive); 3: > 100 µM (inactive); 4: > 100 µM (inactive)

====

test system: SF-539; test: NCI tumour cell line growth inhibition, 48 h
Activity calls are given as the source filed them. Rule as the data show it: active = GI50 up to about 1.1 µM and inactive = higher.
Parameter call: string, one of y (active), n (inactive)

Example results:
molecule: C/C(CN1C(=O)c2ccccc2C1=O)=N\NS(=O)(=O)c1cccc(C(=O)O)c1
assigned label: n
--
molecule: C=C(Cl)/C(=C\Cl)CCC(Cl)C(C)C (stereo not given)
assigned label: n

Asked: Outcome? CC(=O)OC1C(C)OC(OC2C[C@](O)(C(C)=O)Cc3c(O)c4c(c(O)c32)C(=O)c2ccccc2C4=O)C(F)C1OC(C)=O (stereo not given in full)
Given back: y

Asked: Outcome? "CCNC(=S)N/N=C/c1cc([N+](=O)[O-])ccc1O"
Given back: n

Asked: Outcome? CCOC(=O)CN1C(=O)NC(C)(c2ccccc2)C1=O (stereo not given)
Given back: n

Asked: Outcome? "COc1ccc(/C=C2\N=C(c3ccccc3)N(Nc3nnc(NN4C(=O)/C(=C/c5ccc(OC)cc5)N=C4c4ccccc4)c4ccccc34)C2=O)cc1"
Given back: n

Asked: Outcome? C=C(CN1CC2C[C@](C(=O)OC)(c3cc4ccccc4[nH]3)C1C(OC)C2OC)S(=O)(=O)c1ccccc1 (stereo not given in full)
Given back: n

Asked: Outcome? CN(C)c1ccc(C2SCC(=O)N2NS(=O)(=O)c2cccc(C(=O)O)c2)cc1 (stereo not given)
Given back: n

Asked: Outcome? "CC(=O)OCc1cc2ccccc2nc1C(Br)(Br)Br"
Given back: n

Asked: Outcome? "Nc1nc(=O)c(/N=N/c2ccccc2)c(N)[nH]1"
Given back: n

Asked: Outcome? O=C(NC(COC(=O)C(Cc1ccccc1)NC(=O)c1ccccc1)Cc1ccccc1)c1ccccc1 (stereo not given)
Given back: n

Asked: Outcome? "CCOC(=O)c1c(NC(=O)c2ccccc2)sc2c1CCC2"
Given back: n

Asked: Outcome? "Cn1c(N/N=C/c2ccccc2)nc(-c2ccc3c(c2)OCO3)c(C#N)c1=O"
Given back: n

====

system: SNB-19; assay: NCI tumour cell line growth inhibition, 48 h
Calls of active or inactive are those of the source. Cut-off read from the data, not from the text of the source: active = GI50 up to about 1.1 µM and inactive = higher.
property label: GI50

A selection of reference data follows.
compound: CC1C(O)Oc2cc3c(cc2C1c1ccccc1O)OCO3 (stereo not given)
observed: 51.6 µM (inactive)
--
compound: CC1CNC(c2ccc(CN3CCC(CCCC4CCN(Cc5ccc(C6=NC(C)CN6)cc5)CC4)CC3)cc2)=N1 (stereo not given)
observed: 24.5 µM (inactive)
--
compound: CC(=O)OCC1OC(n2c(-c3ccc(Cl)cc3)cc(-c3ccccc3)c(C#N)c2=S)C(OC(C)=O)C(OC(C)=O)C1OC(C)=O (stereo not given)
observed: 8.53 µM (inactive)

Please state, for each entry, its recorded GI50.
1. CCC12C=CCN(CCc3c([nH]c4ccccc34)/C=C\1)C2 (stereo not given)
2. CCN1c2ccccc2C(C(SC)S(=O)(=O)c2ccc(C)cc2)c2c1[nH]c(=O)n(C)c2=O (stereo not given)
3. CC(=O)OC1C(C)OC(OC2C[C@](O)(C(C)=O)Cc3c(O)c4c(c(O)c32)C(=O)c2ccccc2C4=O)C(F)C1OC(C)=O (stereo not given in full)
4. N#CC1(C#N)C2C=CC(C3CCC=C32)C1(C#N)C#N (stereo not given)

Given back:
1. > 100 µM (inactive)
2. > 100 µM (inactive)
3. 0.245 µM (active)
4. > 10 µM (inactive)

====

For each record, write down the corresponding GI50.
test system: BT-549; experiment: NCI tumour cell line growth inhibition, 48 h
Calls of active or inactive are those of the source. No stated cut-off is given here; in the data, active = GI50 up to about 1.1 µM and inactive = higher.

A selection of reference data follows.
compound: O=C(c1cccs1)N(C(=S)OC12CC3CC(CC(C3)C1)C2)c1ccccc1
target: BT-549
GI50: 35.3 µM (inactive)
//
compound: O[C@H]1[C@H](O)[C@@H](O)[C@@]2(O)CC[C@@H]1N2
target: BT-549
GI50: > 100 µM (inactive)
//
compound: COC1=NC(NC2OCC(O)C(O)C2O)=C(NC(C)=O)CN1C (stereo not given)
target: BT-549
GI50: > 100 µM (inactive)
//
compound: CC(NC(=O)c1ccccc1)(C(=O)O)C(=O)O
target: BT-549
GI50: > 100 µM (inactive)
//
compound: N#CC1(C#N)C2C=CC(C3CCC=C32)C1(C#N)C#N (stereo not given)
target: BT-549
GI50: > 10 µM (inactive)
//
compound: CCCC/N=C(/c1ccccc1)N1CCOCC1
target: BT-549
GI50: > 100 µM (inactive)
//
compound: N#CCCN(CCC#N)c1ccc(C(/N=N/c2ccccc2)=N\c2ccccc2)cc1
target: BT-549
GI50: 13 µM (inactive)
//
compound: CCN(CC)CCN1CCN=c2c3cc(OC)ccc3n3cnc4ccc1c2c43
target: BT-549
GI50: 1.27 µM (inactive)

Please state, for each entry, its recorded GI50.
1. O=C1C2=Cc3ccccc3OC2(O)Oc2cc(O)ccc21 (stereo not given)
2. O=CC(O)C(O)C(O)C1CNC(=S)O1 (stereo not given)

Given back:
> 100 µM (inactive)
> 100 µM (inactive)

====

system: HCT-116; experiment: NCI tumour cell line growth inhibition, 48 h
Calls of active or inactive are those of the source. Rule as the data show it: active = GI50 up to about 1.1 µM and inactive = higher. Residues, ends and D or L forms follow the SMILES beside them.
property label: GI50

A selection of reference data follows.
molecule: CCn1c2ccc(C(=O)CCCN3CCCCC3)cc2c2cc(C(=O)CCCN3CCCCC3)ccc21
target: HCT-116
GI50: 1.78 µM (inactive)

molecule: O=C(CC(=O)N1N=C(c2ccccc2)C(/N=N/c2ccc(S(=O)(=O)CCOS(=O)(=O)O)cc2)C1=O)Nc1ccc(Cl)cc1 (centres undefined)
target: HCT-116
GI50: 85.9 µM (inactive)

molecule: COCO[C@@H]1C[C@H]2C(=O)N(COC)c3ccccc3C(=O)N2C1
target: HCT-116
GI50: > 100 µM (inactive)

molecule: C=C(Cl)C(Cl)(CBr)CCCC(C)(C)Cl (centres undefined)
target: HCT-116
GI50: 14.1 µM (inactive)

molecule: CC(=O)NNc1nc(C)c(C(=O)NNC(=O)C(=O)Nc2c(Cl)cc([N+](=O)[O-])cc2Cl)s1
target: HCT-116
GI50: 34.5 µM (inactive)

Please state, for each entry, its recorded GI50.
1. CC(=O)OCC1=C(C)C(OC(=O)C(OC(C)=O)[C@@H](NC(=O)c2ccccc2)c2ccccc2)CCC1(C)C (some centres undefined)
2. S=C(c1c[nH]c2ccccc12)N1CCN(c2ccccc2)CC1
3. CC(=O)NC(CO)C(=O)NC(Cc1ccc(O)cc1)C(=O)NCC(N)=O (stereo not drawn) (Ac-Ser-Tyr-Gly-NH2; configuration not given here)
4. CCn1c(-c2ccc(OC)cc2)nc2c1C(=O)c1ccccc1C2=O

Given back:
1. > 100 µM (inactive)
2. > 100 µM (inactive)
3. > 100 µM (inactive)
4. > 100 µM (inactive)

====

tested on: T47D; assay: NCI tumour cell line growth inhibition, 48 h
Active and inactive are the calls of the source. Rule as the data show it: active = GI50 up to about 1.1 µM and inactive = higher.
property label: GI50

A selection of reference data follows.
compound: COc1ccc2c(c1)CCc1c-2n(CCN2CCCCC2)c2ccc(OC)cc12
GI50: > 100 µM (inactive)
//
compound: COc1ccc(CCCC(=O)O)c(C)c1
GI50: 50.8 µM (inactive)
//
compound: C#C[C@]1(O)CC[C@H]2[C@@H]3CCC4=C/C(=N/CCOC(=O)c5cccc6cc7ccccc7nc56)CC[C@@H]4[C@H]3CC[C@@]21C
GI50: 16.8 µM (inactive)
//
compound: O=C(/C=C/c1ccc(O)c(O)c1)NC(COC(=O)/C=C/c1ccc(O)c(O)c1)C(=O)O (stereo not given)
GI50: > 100 µM (inactive)

Attention now shifts to the item below.
Asked: # query: GI50 of entry "CN(C)Cc1cc(C(=O)/C=C/c2ccc([N+](=O)[O-])cc2)cc(CN(C)C)c1O"
Given back: 13.4 µM (inactive)
